Data provenance: patent US20150329642A1

Tested On: T1, cMetECDHis (human, UniProt P08581 25-932, limits assumed, biotinylated in the cross-block ELISA of Example 17)
T1 construct: Expressed in HEK-293F cells; also called soluble cMetECDHis; biotinylated cMetECDHis
Assay Info: cross-block ELISA; competitor 101
Known residual binding, % of no competitor of a selection of binders
Dear colleague, please return just the value in %, with no unit written.

Some entries whose results are on file:
{"Binder": "anti-c-Met HuMab 006 (IgG1) (antibody, V domains shown, also called TH1016-006; PC1016-006) VH: QVQLVQSGAEVKKPGSSVKVSCKASGGTFSSFGIGWVRQAPGQGLEWMGRIFPILGTANYAQMFQGRVTITADKSTSTAYMELTSLRSEDTAVYYCARDVGYDSADAFDIWGQGTMVTVSS VL: DIQMTQSPSSLSASVGDRVTITCRASQGISSWLAWYQQKPEKAPKSLIYAASSLQSGVPSRFSGSGSGTDFTLTISSLQPEDFATYYCQQYNSYPPTFGQGTKVEIK", "Readout Unit": "%", "residual binding, % of no competitor": 106}
{"Binder": "anti-c-Met HuMab 035 (IgG1) (antibody, V domains shown, also called P1016-035; TH1016-035-D09) VH: EVQLVQSGAEVKKPGESLKISCKGSGYSFTSYWIGWVRQMPGKGLEWMGIIYPGDSDTRYSPSFQGQVTISADKSISTAYLQWNSLKASDTAMYYCARQEITGEFDYWGQGTLVTVSS VL: AIQLTQSPSSLSASVGDRVTITCRASQGISSALAWYQQKPGKAPKLLIYDASSLESGVPSRFSGSGSGTDFTLTISSLQPEDFATYYCQQFNSYPMYTFGQGTKLEIK", "Readout Unit": "%", "residual binding, % of no competitor": 113}
{"Binder": "anti-c-Met HuMab 098 (IgG1) (antibody, V domains shown, also called TH1016-098; PC1016-098) VH: QVQLVQSGAEVKKPGASVKVSCKASGYTFTNFGISWVRQAPGQGLEWMGWISAFNGHTDYSQKVQGRVTMTTDTSTSTAYMELRSLRSDDTAVFYCARSHYYGSGSPFDYWGQGTLVTVSS VL: DIQMTQSPSSLSASVGDRVTITCRASQGISNWLAWYQQKPEKAPKSLIYAASSLQSGVPSRFSGSGSGTDFTLTISSLQPEDFATYYCHQYKSYPWTFGQGTKVEIK", "Readout Unit": "%", "residual binding, % of no competitor": 4}
{"Binder": "IgG1-024 (antibody, V domains shown, also called TH1016-024; PC1016-024) VH: EVQLLESGGGLVQPGGSLRLSCVASGFTFSSYAMSWVRQAPGKGLEWVSAISGSSGGSTYYVDSVKGRFTISRANSKNTLYLQMNSLRAEDTAVYYCAKDLDRGWMGYFGYWGQGTLVTVSS VL: DIQMTQSPSSVSASVGDRVTITCRASQGISSWLAWYQHKPGKAPKLLIYAASSLQSGVPSRFSGSGSGTDFTLTISSLQPEDFATYYCQQANSFPTFGQGTRLEIK", "Readout Unit": "%", "residual binding, % of no competitor": 4.8}

What the record says about IgG1-1016-069 (antibody, V domains shown, also called clone 069; TH1016-069) VH: QVQLVQSGAEVKKPGASVKVSCETSGYTFTSYGISWVRQAPGHGLEWMGWISAYNGYTNYAQKLQGRVTMTTDTSTSTAYMELRSLRSDDTAVYYCARDLRGTNYFDYWGQGTLVTVSS VL: DIQMTQSPSSVSASVGDRVTITCRASQGISNWLAWFQHKPGKAPKLLIYAASSLLSGVPSRFSGSGSGTDFTLTISSLQPEDFATYYCQQANSFPITFGQGTRLEIK : residual binding, % of no competitor is 3.9
